This collection of values is drawn from ChEMBL document CHEMBL4811258.

// each record: one item and its EC50 for Plasmodium falciparum
Observable: EC50 (µM)

>>> df
                                   compound  observable  value_prefix  measured_number
0  Cc1c(Cc2ccc(C(F)(F)F)nc2)c[nH]c1C(=O)NC(C)c1nc[nH]n1 (stereo in doubt; form 2)        EC50             =               16
1  Cc1c(Cc2ccc(C(F)(F)F)nc2)c[nH]c1C(=O)NC(C)c1cc(C#N)[nH]n1 (stereo in doubt; form 1)        EC50             =            0.017
2  Cc1c(Cc2ccc(C(F)(F)F)nc2)c[nH]c1C(=O)NC(C)c1cc(C(N)=O)[nH]n1 (stereo in doubt; form 2)        EC50             =               16
3  Cc1c(Cc2ccc(C(F)(F)F)nc2)c[nH]c1C(=O)NC(C)c1cc(C(N)=O)[nH]n1 (racemic)        EC50             =            0.051
4  Cc1cc(C(C)NC(=O)c2[nH]cc(-c3n[nH]c4cc(C(F)(F)F)ccc34)c2C)no1 (stereo in doubt; form 1)        EC50             >               10

====

- Measurement protocol: physchem
- Study conditions: PBS, pH 7.4
Observable: solubility at 5 h (µg/mL)

                               smiles_entry         observable  measured_number
0  Cc1cc(Nc2ccc(S(F)(F)(F)(F)F)cc2)n2nc(C(F)(F)F)nc2n1  solubility at 5 h                2

====

- Measurement protocol: Cmax in Swiss mouse at 10 mg/kg, po measured up to 24 hrs by LC-MS analysis
- Assay type: ADME, organism-based
- Parameters: route oral, dose 10 mg/kg, time <=24
- Study conditions: in vivo
Observable: Cmax (µM)

In [3]: df
Out[3]:
                               smiles_entry  measured_number
0  Cc1cc(Nc2ccc(S(F)(F)(F)(F)F)cc2)n2nc(C(F)(F)F)nc2n1              3.1

====

- Measurement protocol: Oral bioavailability in Swiss mouse at 10 mg/kg measured up to 24 hrs by LC-MS analysis
- Assay type: ADME, organism-based
- Study conditions: in vivo
Observable: bioavailability (%)

>>> df
                               smiles_entry  measured_number
0  Cc1cc(Nc2ccc(S(F)(F)(F)(F)F)cc2)n2nc(C(F)(F)F)nc2n1               46

====

- System: Plasmodium falciparum
Observable: log10(EC50) (log10 of the value in nM)

                                    molecule  measured_number
 0  Cc1c(-c2c[nH]c3nc(C(F)(F)F)ccc23)c[nH]c1C(=O)NC(C)c1nc[nH]n1 (stereo in doubt; form 1)             1.72
 1  Cc1cc(C(C)NC(=O)c2[nH]cc(Cc3ccc(C(F)(F)F)nc3)c2C)n[nH]1 (stereo in doubt; form 1)             1.30
 2  Cc1cc(C(C)NC(=O)c2[nH]cc(Cc3ccc(C(F)(F)F)nc3)c2C)no1 (stereo in doubt; form 2)             2.65
 3  Cc1c(C2(c3ccc(C(F)(F)F)c(F)c3)CC2)c[nH]c1C(=O)NC(C)c1nc[nH]n1 (stereo in doubt; form 1)             1.46
 4  Cc1c(Cc2ccc(C(F)(F)F)nc2)c[nH]c1C(=O)NC(C)c1cn[nH]c1 (racemic)             0.95
 5  Cc1c(Cc2ccc(C(F)(F)F)cc2F)c[nH]c1C(=O)NC(C)c1nc[nH]n1 (stereo in doubt; form 1)             2.18
 6  Cc1cc(C(C)NC(=O)c2[nH]c(C)c(Cc3ccc(C(F)(F)F)nc3)c2C#N)no1 (stereo in doubt; form 2)             1.81
 7  Cc1c(C(=O)NC(C)c2nc[nH]n2)[nH]c(Cl)c1Cc1ccc(C(F)(F)F)nc1 (stereo in doubt; form 4)             2.11
 8  Cc1[nH]c(C(=O)NC(C)c2cnn(C)c2)c(C)c1Cc1ccc(C(F)(F)F)nc1 (stereo in doubt; form 2)             1.23
 9  Cc1[nH]c(C(=O)NC(C)c2cn[nH]c2)c(C)c1Cc1ccc(C(F)(F)F)nc1 (stereo in doubt; form 2)             2.28
10  Cc1c(C(=O)NC(C)c2nc[nH]n2)[nH]c(Cl)c1Cc1ccc(C(F)(F)F)nc1 (stereo in doubt; form 2)             1.60
11  Cc1c(C2(c3cccc(C(F)(F)F)c3)CC2)c[nH]c1C(=O)NC(C)c1nc[nH]n1 (stereo in doubt; form 1)             1.68
12  Cc1c(C2(c3ccc(C(F)(F)F)cc3F)CC2)c[nH]c1C(=O)NC(C)c1nc[nH]n1 (stereo in doubt; form 1)             4.08
13  Cc1[nH]c(C(=O)NC(C)c2nc[nH]n2)c(C)c1Cc1ccc(C(F)(F)F)nc1 (stereo in doubt; form 1)             2.15

====

- Measurement protocol: in vitro
- Study conditions: mouse, blood and plasma
Observable: blood plasma ratio

>>> df
                                   molecule          observable  measured_number
0  Cc1c(Cc2ccc(C(F)(F)F)nc2)c[nH]c1C(=O)NC(C)c1cn[nH]c1 (stereo in doubt; form 1)  blood plasma ratio              1.4

====

- Measurement protocol: Cmax in Sprague-Dawley rat at 31 mg/kg, po measured up to 24 hrs
- Type: ADME, organism-based
- Parameters: route oral, dose 31 mg/kg, time <=24
- Study conditions: in vivo
Observable: Cmax

>>> print(df.to_string())
                                   compound   result
0  Cc1c(Cc2ccc(C(F)(F)F)nc2)c[nH]c1C(=O)NC(C)c1cn[nH]c1 (stereo in doubt; form 1)  2400 nM

====

- Measurement protocol: AUC (0 to infinity) in Sprague-Dawley rat at 19 mg/kg, po measured up to 24 hrs
- Assay type: ADME, organism-based
- Parameters: route oral, dose 19 mg/kg, time <=24
- Study conditions: in vivo
Observable: AUC(0-inf) (µM·h)

In [3]: df
Out[3]:
                               smiles_entry  measured_number
0  Cc1cc(Nc2ccc(S(F)(F)(F)(F)F)cc2)n2nc(C(F)(F)F)nc2n1              120

====

- Measurement protocol: Apparent half life in Sprague-Dawley rat at 31 mg/kg, po measured up to 24 hrs
- Type: ADME, organism-based
- Study conditions: in vivo, read-out: t1/2(app) (converted)
Observable: half-life (h)

In [3]: df
Out[3]:
                                   compound  observable  scale_unit  measured_number
0  Cc1c(Cc2ccc(C(F)(F)F)nc2)c[nH]c1C(=O)NC(C)c1cn[nH]c1 (stereo in doubt; form 1)   half-life           h              3.4

====

- Measurement protocol: AUC (0 to infinity) in Sprague-Dawley rat at 32 mg/kg, po measured up to 24 hrs
- Assay type: ADME, organism-based
- Design: route oral, dose 32 mg/kg, time <=24
- Study conditions: in vivo
Observable: AUC(0-inf) (µM·h)

                                   molecule  observable  scale_unit  measured_number
0  Cc1c(Cc2ccc(C(F)(F)F)nc2)c[nH]c1C(=O)NC(C)c1cnn(C)c1 (stereo in doubt; form 1)  AUC(0-inf)        µM·h              360

====

- Measurement protocol: Plasma clearance in Swiss mouse at […], iv measured up to 24 hrs by LC-MS analysis
- Assay type: ADME, organism-based
- Study conditions: dose 2.8 mg/kg
Observable: clearance at 24 h (mL/min/kg)

>>> print(df.to_string())
                                   compound  scale_unit  measured_number
0  Cc1cc(C(C)NC(=O)c2[nH]cc(Cc3ccc(C(F)(F)F)nc3)c2C)no1 (stereo in doubt; form 1)   mL/min/kg              7.7

====

- Measurement protocol: Cmax in Swiss mouse at […], po measured up to 24 hrs by LC-MS analysis
- Assay type: ADME, organism-based
- Parameters: route oral, dose 2.6 mg/kg, time <=24
- Study conditions: in vivo
Observable: Cmax at 24 h

>>> df
                                   compound    observable   result
0  Cc1c(C2(c3ccc(C(F)(F)F)nc3)CC2)c[nH]c1C(=O)NC(C)c1nc[nH]n1 (stereo in doubt; form 1)  Cmax at 24 h  2600 nM
